# Tested on: Nakaseomyces glabratus
# EXPERIMENTAL_DETAILS: Antifungal activity against Candida glabrata assessed as reduction in fungal growth
# Assay type: functional
# Set-up: concentration or dose not given beside the values
Where Activity equals or exceeds 50%, the correct label is criterion met; where it does not, the label is criterion not met.

* CCCN(CCC)C(=S)NC(=O)c1ccc(Br)o1 | criterion not met
* Cc1ccc(S(=O)(=O)Nc2ncccn2)cc1 | criterion met
* CCN(C(=S)NC(=O)c1ccc(C)s1)C(C)C | criterion met
* NS(=O)(=O)c1ccc(/N=C/c2cc(Cl)ccc2O)cc1 | criterion not met

Kindly consider the entry below.
Q) # check: Activity of CCN(C(=S)NC(=O)c1cccs1)C(C)C is greater than or equal to 50%
A) criterion not met

Reference for the values: ChEMBL document CHEMBL6153171
